The compounds listed here are annotated with their pIC50.
measurementTarget: recombinant Human Phosphodiesterase B2 (PDE4B2) (Homo sapiens)
Sequence (Q07343 1-564 isoform Q07343-2): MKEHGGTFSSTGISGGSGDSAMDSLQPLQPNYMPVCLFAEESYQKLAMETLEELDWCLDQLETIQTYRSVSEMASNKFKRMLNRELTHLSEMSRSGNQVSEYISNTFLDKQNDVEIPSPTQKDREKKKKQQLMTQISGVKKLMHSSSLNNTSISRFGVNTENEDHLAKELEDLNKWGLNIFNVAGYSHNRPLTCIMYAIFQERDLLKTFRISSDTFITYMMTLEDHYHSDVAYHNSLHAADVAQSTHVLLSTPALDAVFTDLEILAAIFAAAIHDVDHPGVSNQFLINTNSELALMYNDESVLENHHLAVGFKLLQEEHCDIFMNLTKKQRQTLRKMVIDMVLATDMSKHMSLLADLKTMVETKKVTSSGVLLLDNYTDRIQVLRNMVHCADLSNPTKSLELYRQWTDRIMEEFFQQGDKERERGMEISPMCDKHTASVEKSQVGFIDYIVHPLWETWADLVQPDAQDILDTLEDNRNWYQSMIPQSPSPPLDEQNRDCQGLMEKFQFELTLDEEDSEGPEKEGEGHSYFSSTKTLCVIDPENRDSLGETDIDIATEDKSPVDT
methodSummary: Human Phosphodiesterase B2 Alpha Screen Assay
statedConditions: cAMP substrate, Alpha Screen cAMP kit, 60 minutes at room temperature
Description: Human Phosphodiesterase B2 Alpha Screen Assay The assay uses recombinant Human Phosphodiesterase B2 (PDE4B2) produced in house (PrAZL0133), stored at −20° C. […] The assay additions were as follows: Test compounds and controls were added to white 384-well flat-bottom plates (Greiner, Cat# 781075), 0.2 μl in 100% DMSO, followed by 10 μl PDE4B2 in reaction buffer. […] IC50 values (presented in Table 1) were determined using Xlfit curve fitting using model 205.
pIC50: −log10 of the molar value.
measurementKind: pIC50

                                    compound  qualifiersign  readoutvalue
 0  O=C(c1cc(CO)ccc1O)N1CCC(n2c(=O)c3cc(F)cnc3n(-c3ccc(F)c(F)c3)c2=O)CC1 [Example 78]              =          6.53
 1  COC(=O)c1cccc(-n2c(=O)n([C@H]3CC[C@@H](NC(=O)c4cc(C)ccc4O)CC3)c(=O)c3cc(F)cnc32)c1 [Example 45]              >          7.80
 2  O=C(N[C@H]1CC[C@@H](n2c(=O)c3cc(F)cnc3n(-c3ccc(F)c(F)c3)c2=O)CC1)c1cc(Cl)ccc1O [Example 4]              =          8.30
 3  O=C(c1n[nH]c2ccccc12)N1CC[C@@H](n2c(=O)c3cc(F)cnc3n(-c3ccc(F)c(F)c3)c2=O)C1 [Example 79]              =          7.81
 4  COC(=O)c1cccc(-n2c(=O)n([C@H]3CC[C@@H](NC(=O)C4CCN(C)CC4)CC3)c(=O)c3cc(F)cnc32)c1 [Example 73]              =          7.20
 5  CC1=C(C(=O)N[C@H]2CC[C@@H](n3c(=O)c4cc(F)cnc4n(-c4ccc(F)c(F)c4)c3=O)CC2)SC2=NCCCN21 [Example 92]              =          8.11
 6  O=C(CO)N[C@H]1CC[C@@H](n2c(=O)c3cc(F)cnc3n(-c3ccc(F)c(F)c3)c2=O)CC1 [Example 3]              =          7.79
 7  O=C(N[C@H]1CC[C@@H](n2c(=O)c3cc(F)cnc3n(-c3ccc(F)c(F)c3)c2=O)CC1)c1cccc([N+](=O)[O-])c1 [Example 86]              =          8.38
 8  CSc1cccc(-n2c(=O)n([C@H]3CC[C@@H](NC(=O)c4cc(C)ccc4O)CC3)c(=O)c3cc(F)cnc32)c1 [Example 35]              =          8.85
 9  O=C(c1n[nH]c2ccccc12)N1CC[C@H](n2c(=O)c3cc(F)cnc3n(-c3ccc(F)c(F)c3)c2=O)C1 [Example 83]              =          8.04
10  O=C(N[C@H]1CC[C@@H](n2c(=O)c3cc(F)cnc3n(-c3ccc(F)c(F)c3)c2=O)CC1)c1ccc(F)cc1O [Example 51]              =          8.28
11  O=C(N[C@H]1CC[C@@H](n2c(=O)c3cc(F)cnc3n(-c3ccc(F)c(F)c3)c2=O)CC1)c1cc2cccnc2[nH]1 [Example 103]              =          9.13
12  CS(=O)(=O)c1cccc(-n2c(=O)n([C@H]3CC[C@@H](NC(=O)C4CC4)CC3)c(=O)c3cc(F)cnc32)c1 [Example 71]              =          7.39
